Assay: Double-blind randomized crossover pharmacokinetic study, single oral 900 μg vitamin D3 or 25(OH)D3
Format: in vivo, human
Details: both sexes, human, in vivo, po, 900 ug, healthy participants with higher BMI (N = 5); single oral 900 μg; mean ± SEM
Protocol: The conclusions as presented herein are based on the following experiments: In a double-blinded cross-over study single high dosages (900 μg total in two soft gel capsules containing 450 μg) of either vitamin D3 or 25(OH)D3 were administered to vitamin D-deficient volunteers including healthy controls as well as subjects with a history of malabsorption. At the outset, the BMI was determined. […] All the samples were analyzed for their contents in vitamin D3 per se as well as 25(OH)D3. […]
measured_attribute: AUC (ng·h/mL)
Unit ng·h/mL implied. Number only.

Task item: For the molecule C=C1CC[C@H](O)C/C1=C/C=C1\CCC[C@]2(C)[C@@H]([C@H](C)CCCC(C)C)CC[C@@H]12 , what AUC is on record?
Reply: 2090
